- TARGET ENTITY: recombinant PRL-2 (Homo sapiens, UniProt Q12974)
- Construct: 6xHis (N, cleaved yes); made in house; host or cells: E. coli One Shot BL21 Star
- Sequence (Q12974 1-167): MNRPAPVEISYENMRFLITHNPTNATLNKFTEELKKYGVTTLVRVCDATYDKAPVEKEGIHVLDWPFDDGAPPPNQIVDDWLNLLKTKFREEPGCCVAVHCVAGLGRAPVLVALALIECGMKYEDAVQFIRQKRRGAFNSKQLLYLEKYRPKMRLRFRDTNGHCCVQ
- EXPERIMENT: In vitro phosphatase assay (DiFMUP hydrolysis), PRL-2;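 also: PRL-2 activity read as DiFMUP hydrolysis after 20 min at room temperature with drug, enzyme first pre-reduced at 4 °C for 20 min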
- Assay type: biochemical
- ASSAY CONTEXT: FDA-approved drug screen; compared to DMSO
Structures can show the parent of a compound that is named as a salt.
PARAMETER MEASURED: % Phosphatase Activity (compared to DMSO) PRL-2 (%)
Give bare numbers, in %.

compound="CC(C)(C)c1cc(C(C)(C)C)c(NC(=O)c2c[nH]c3ccccc3c2=O)cc1O [Ivacaftor (VX-770)]" units_label=% meas_value=87

Please give % Phosphatase Activity (compared to DMSO) PRL-2 for each item listed below.
1. NS(=O)(=O)c1cc2c(cc1Cl)N=C(CSCc1ccccc1)NS2(=O)=O [Benzthiazide]
2. Nc1ncn([C@@H]2O[C@H](CO)[C@@H](O)[C@H]2O)c(=O)n1 [Azacitidine]

1: 115; 2: 93

Please give % Phosphatase Activity (compared to DMSO) PRL-2 for each item listed below.
1. CN(C)CCC[C@@]1(c2ccc(F)cc2)OCc2cc(C#N)ccc21 [Escitalopram Oxalate]
2. COc1cc2ncnc(Nc3ccc(F)c(Cl)c3)c2cc1OCCCN1CCOCC1 [Gefitinib (ZD1839)]
3. Cc1c(NC(=O)c2cccnc2)c(=O)n(-c2ccccc2)n1C [Nifenazone]

117
102
105

Please give % Phosphatase Activity (compared to DMSO) PRL-2 for each item listed below.
1. C[C@H](NC(=O)C(=O)Nc1ccccc1C(C)(C)C)C(=O)N[C@@H](CC(=O)O)C(=O)COc1c(F)c(F)cc(F)c1F [Emricasan]
2. C[N+](C)(C)CCCCCCCCCC[N+](C)(C)C [Decamethonium Bromide]
3. CC(C)[C@H]1CC[C@H](C(=O)N[C@H](Cc2ccccc2)C(=O)O)CC1 [Nateglinide]

1: 72; 2: 118; 3: 90

Please give % Phosphatase Activity (compared to DMSO) PRL-2 for each item listed below.
1. OC(Cn1cncn1)(Cn1cncn1)c1ccc(F)cc1F [Fluconazole]
2. Nc1ccc(O)c(C(=O)O)c1 [Mesalamine]
3. CCCN(CCC)C(=O)C1=Cc2ccc(-c3ccc(C(=O)N4CCCC4)cc3)cc2N=C(N)C1 [Motolimod (VTX-2337)]
4. COC(=O)C1=C(C)NC(C)=C(C(=O)OC(C)C)C1c1cccc2nonc12 (stereo not drawn) [Isradipine]
5. CCOc1cc2ncc(C#N)c(Nc3ccc(OCc4ccccn4)c(Cl)c3)c2cc1NC(=O)/C=C/CN(C)C [Neratinib (HKI-272)]

1: 97; 2: 131; 3: 90; 4: 74; 5: 111

Please give % Phosphatase Activity (compared to DMSO) PRL-2 for each item listed below.
1. CN(C)CCCOc1nn(Cc2ccccc2)c2ccccc12 [Benzydamine HCl]
2. C[C@@H]1O[C@@H]1P(=O)(O)O.NC(CO)(CO)CO [Fosfomycin Tromethamine]
3. O=C(O)Cc1ccccc1Nc1c(Cl)cccc1Cl [Diclofenac Diethylamine]
4. N=C(N)c1ccc(OCCCCCOc2ccc(C(=N)N)cc2)cc1 [Pentamidine]
5. CN(C)CCC(c1ccc(Br)cc1)c1ccccn1.O=C(O)/C=C\C(=O)O (stereo not drawn) [Brompheniramine hydrogen maleate]
6. CN1CCN(C2=Nc3ccccc3Oc3ccc(Cl)cc32)CC1 [Loxapine Succinate]
7. CCCCCCCCCC(=O)N[C@@H](Cc1c[nH]c2ccccc12)C(=O)N[C@H](CC(N)=O)C(=O)N[C@@H](CC(=O)O)C(=O)N[C@@H]1C(=O)NCC(=O)N[C@@H](CCCN)C(=O)N[C@@H](CC(=O)O)C(=O)N[C@H](C)C(=O)N[C@@H](CC(=O)O)C(=O)NCC(=O)N[C@H](CO)C(=O)N[C@@H]([C@H](C)CC(=O)O)C(=O)N[C@@H](CC(=O)c2ccccc2N)C(=O)O[C@@H]1C [Daptomycin]

1. 116
2. 101
3. 140
4. 116
5. 107
6. 110
7. 75

All values here come from paper PMC8119466.
